The measurements presented in this section are drawn from patent US12220421B2.

Each record here notes measured activity at 125 µM.
Test system: C. difficile R20291 spores
Assay: C. difficile spore germination assay (optical density, OD580)
Conditions: Clostridioides difficile, R20291SPORES, read-out: % Germination, Table 2; compound 125 μM, 6 mM taurocholate, 12 mM glycine, ± standard deviation
Number plus unit, in that order.

Reference set (3 entries):
Cc1ccc2c(c1)CCN2C(=O)CC[C@@H](C)[C@H]1CC[C@H]2[C@@H]3[C@H](O)C[C@@H]4C[C@H](O)CC[C@]4(C)[C@H]3C[C@H](O)[C@]12C
100%
C[C@H](CCC(=O)N1CCc2c(Cl)cccc21)[C@H]1CC[C@H]2[C@@H]3[C@H](O)C[C@@H]4C[C@H](O)CC[C@]4(C)[C@H]3C[C@H](O)[C@]12C
95%
C=CCN(CC=C)C(=O)CC[C@@H](C)[C@H]1CC[C@H]2[C@@H]3[C@H](O)C[C@@H]4C[C@H](O)CC[C@]4(C)[C@H]3C[C@H](O)[C@]12C
0.9%

Enquiry: Value lookup for activity at 125 µM; key = `C[C@H](CCC(=O)N1CCc2ccccc2C1)[C@H]1CC[C@H]2[C@@H]3[C@H](O)C[C@@H]4C[C@H](O)CC[C@]4(C)[C@H]3C[C@H](O)[C@]12C`
Return: 78%

Enquiry: Ok, now `C[C@H](CCC(=O)N1CCc2cc(Br)ccc21)[C@H]1CC[C@H]2[C@@H]3[C@H](O)C[C@@H]4C[C@H](O)CC[C@]4(C)[C@H]3C[C@H](O)[C@]12C`
Return: 90%
